These measurements were taken from ChEMBL document CHEMBL1144238.

Target: Alpha-2A adrenergic receptor (Homo sapiens, UniProt P08913)
Sequence (P08913 whole entry): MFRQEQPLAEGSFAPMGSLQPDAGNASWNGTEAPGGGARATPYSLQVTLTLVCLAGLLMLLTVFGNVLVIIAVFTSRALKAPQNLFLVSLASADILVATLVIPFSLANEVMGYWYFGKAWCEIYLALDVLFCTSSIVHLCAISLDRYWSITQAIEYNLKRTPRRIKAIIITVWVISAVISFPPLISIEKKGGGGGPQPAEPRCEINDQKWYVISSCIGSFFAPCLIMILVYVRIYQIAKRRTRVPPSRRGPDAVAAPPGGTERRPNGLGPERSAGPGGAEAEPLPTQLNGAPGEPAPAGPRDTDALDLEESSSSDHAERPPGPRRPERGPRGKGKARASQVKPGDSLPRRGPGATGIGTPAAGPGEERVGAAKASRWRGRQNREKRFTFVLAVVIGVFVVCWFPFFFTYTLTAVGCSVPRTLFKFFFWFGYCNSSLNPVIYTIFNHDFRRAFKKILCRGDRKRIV
Test: Binding affinity at human recombinant adrenergic alpha2A receptor expressed in CHO cells by radioligand binding assay
Assay type: cell-based
Recorded measurements of Ki, one per entry
State the answer as a number, implicitly in nM.

Ask: For the compound c1ccc(CN2CCN(CC3CCc4ccccc4O3)CC2)cc1 (stereo not given) , give its measured Ki value.
Reply: 146

Ask: For the compound CCCCOc1ncccc1C(=O)NCCN1CCCN(CC2COc3ccccc3O2)CC1 (stereo not given) , give its measured Ki value.
Reply: 81

Ask: For the compound c1ccc(Oc2ncccc2COCCN2CCCN(CC3COc4ccccc4O3)CC2)cc1 (stereo not given) , give its measured Ki value.
Reply: 66.1

Ask: For the compound CCCCOc1cccc(C(=O)NCCN2CCCN(CC3COc4ccccc4O3)CC2)n1 (stereo not given) , give its measured Ki value.
Reply: 118

Ask: For the compound O=C(NCCN1CCCN(C[C@H]2COc3ccccc3O2)CC1)c1cccnc1Oc1ccccc1 , give its measured Ki value.
Reply: 94.4
